# Tested on: HT29 colon
# assay summary: NCI tumour cell line growth inhibition, 48 h
result type: TGI

>  <compound>
COc1ccc(-c2nc(-c3nc4ccc(OC)cc4[nH]3)cc3c2[nH]c2ccccc23)cc1

>  <test target>
HT29 colon

>  <result>
> 100 µM

$$$$
>  <compound>
N#CC(c1cc2c(cc1Br)OCO2)N1CCOCC1 (stereo not given)

>  <test target>
HT29 colon

>  <result>
> 100 µM

$$$$
>  <compound>
CCCc1nc2c(C)cc(-c3nc4ccccc4n3C)cc2n1Cc1ccc(-c2ccccc2C(=O)O)cc1

>  <test target>
HT29 colon

>  <result>
> 100 µM

$$$$
>  <compound>
Cc1ccccc1CN1CC=c2ccccc2=N1

>  <test target>
HT29 colon

>  <result>
> 100 µM

$$$$
>  <compound>
CC1(C)CN=C(Nc2cccc(C(F)(F)F)c2)S1

>  <test target>
HT29 colon

>  <result>
> 100 µM

$$$$
>  <compound>
COC(=O)C1=C(C(=O)OC)C23C=C(C)C1C2=C(C)C1(CC1)[C@@](C)(O)C3=O (stereo not given in full)

>  <test target>
HT29 colon

>  <result>
16.9 µM

$$$$
>  <compound>
N.N.NCCCCN.O=C([O-])C1(C(=O)[O-])CCC1.O=C([O-])C1(C(=O)[O-])CCC1.[Pt+4].[Pt+4]

>  <test target>
HT29 colon

>  <result>
> 100 µM

$$$$
>  <compound>
NC1=N/C(=C2/CCNC(=O)c3[nH]c(Br)cc32)C(=O)N1

>  <test target>
HT29 colon

>  <result>
> 100 µM

$$$$
>  <compound>
COC(=O)CCn1cnc2c(SC)ncnc21

>  <test target>
HT29 colon

>  <result>
> 100 µM

$$$$
>  <compound>
Cc1ccc(C)c(-c2csc(Nc3ccc(C)c(C)c3)n2)c1

>  <test target>
HT29 colon

>  <result>
> 100 µM

$$$$

Query string: Need TGI, item `N#Cc1ccnc(N2C(=O)CC[C@H]2C(=O)N(c2cncc(F)c2)[C@H](C(=O)NC2CC(F)(F)C2)c2ccccc2Cl)c1`
Result string: > 100 µM

Query string: Which TGI value is on record for `CN(/N=C/C=N/N(C)C1=NCCCCN1)C1=NCCCCN1` ?
Result string: > 100 µM

Query string: May I ask what TGI has been recorded for `C=C1C(=O)O[C@H]2[C@H]1CC/C(COC(=O)NCc1c[nH]c3ccc(Cl)cc13)=C\CC[C@@]1(C)O[C@@H]21` ?
Result string: 2.12 µM

Query string: Entry `O=C1CC2(CCNCC2)C(=O)N1N1CCCC1` has what TGI?
Result string: > 100 µM

Query string: Consider the compound shown here: `O=C1CCC2(CC1)SCCCS2` What is its recorded TGI?
Result string: > 100 µM

Query string: Query: TGI; subject: `O=C1C=C(NCCc2cc(Br)c(O)c(Br)c2)C(=O)c2ncccc21`
Result string: 7.36 µM

Query string: // lookup TGI for `Nc1c(-c2ccc(Cl)cc2Cl)[n+]([O-])c2ccccc2[n+]1[O-]`
Result string: > 100 µM

Query string: Name the recorded TGI for COc1ccc(NC(=O)c2sc3nc(C)c(C(O)c4ccccc4)cc3c2N)cc1 (stereo not given) .
Result string: 88.8 µM

Query string: Entry `O=c1[nH]nc(Cc2ccc(Cl)cc2)n1/N=C\CC/C=N\n1c(Cc2ccc(Cl)cc2)n[nH]c1=O` : reported TGI = ?
Result string: > 100 µM

Query string: Any idea what TGI was measured for `CCOP(=O)(C=C=C(C)C)OCC` ?
Result string: > 100 µM

Query string: // lookup TGI for N#CC1=C(N)OC(c2ccc([N+](=O)[O-])cc2)C1(C#N)C#N (stereo not given)
Result string: 22.9 µM

Query string: Tell me the measured TGI of NC(=S)N/N=C1/C(=O)N(c2ccc(Cl)cc2Cl)C(=O)C(=O)C1c1nc2ccccc2s1 (stereo not given) , please.
Result string: > 100 µM

Query string: Which TGI value is on record for COP1(=O)Oc2ccccc2C(=O)C(C(F)(F)F)(C(F)(F)F)O1 (stereo not given) ?
Result string: > 100 µM

Query string: Entry `CC(C)NC(=O)OCCN=C1c2ccccc2CCc2ccccc21` : reported TGI = ?
Result string: 47.6 µM

Query string: Recorded TGI of `COc1ccc([N+](=O)[O-])c(S(=O)(=O)c2ccc(Cl)cc2)n1` , please.
Result string: 13.9 µM

Query string: Give the measured TGI of `CCCCCCCC[N+](C)(CCCCCCCC)CCCCCCCC` .
Result string: 1.25 µM

Query string: Give its TGI value. Item: `CS(=O)(=O)Nc1ccc(Nc2c3ccccc3nc3ccccc23)cc1`
Result string: 20.5 µM

Query string: Which TGI value is on record for `COc1nc2sc3c(c2c(=O)n1CCCSSCCCn1c(OC)nc2sc4c(c2c1=O)CCCC4)CCCC3` ?
Result string: > 100 µM

Query string: Entry COC(=O)[C@]1(C)CCC[C@@]2(C)C1CCC1=CC3(C(C)C)CCC12OO3 (stereo not given in full) has what TGI?
Result string: > 100 µM

Query string: # lookup: TGI of `Oc1c(C2=N[C@H]3CCCC[C@@H]3N2)ccc2ccccc12`
Result string: > 100 µM

Query string: Reported TGI for `CCOC(=O)[C@@]12CCC(C1=O)[C@](C)(O)C[C@@H]2c1ccccc1` : what is it?
Result string: 73.2 µM

Query string: Entry `COc1cc2c(c3c1c(=O)c1ccccc1n3C)C=CC1(CCCCC1)O2` : reported TGI = ?
Result string: > 10 µM
